src = patent US10544156B2

I'd be grateful if you could share measured IC50 for these entries.
Test system: HCT116 (colorectal cancer)
run-description: Anti-proliferative activity (ATPLite)
Format: cell-based
setup-conditions: Homo sapiens, HCT-116; daily treatment, cell viability by ATPLite; read-out: Antiproliferative activity: IC50 (μM) HCT116 (colorectal cancer)
Experimental: To measure the anti-proliferative properties of tested molecules, 2×10^4 cells are seeded at day 0 in a 96 wells plate. […] Cells are treated everyday and cell viability assessed after 3 days or 7 days of treatment. The cell viability is assessed using the ATPLite kit from Perkin (ATPlite 1 Step Luminescence Assay System, ref 3016739), following the provider instructions. […]
Only the number, expressed in µM, is required.

query: # input compound: CCN(CC)CCCNC(=S)N1CCc2cc3c4cc2[C@@H]1Cc1ccc(OC)c(c1)Oc1ccc(cc1)C[C@H]1c2c(cc(OC)c(c2O4)O3)CCN1C [Product 42] ; wanted: its IC50
result: 0.5

query: Then what about the compound CNC(=O)N1CCc2cc(OC)c3c4c2[C@@H]1Cc1ccc(cc1)Oc1cc(ccc1OC)C[C@H]1c2cc(c(cc2CCN1C)O3)O4 [Product 44] ?
result: 1.88

query: What about CCN(CC)CCCNC(=S)N1CCc2cc3c4cc2[C@@H]1Cc1ccc(OC)c(c1)Oc1ccc(cc1)C[C@H]1c2c(cc(OC)c(c2O4)O3)CCN1C(=S)NCCCN(CC)CC [Product 41] ?
result: 0.96

query: Next: COc1ccc2cc1Oc1ccc(cc1)C[C@@H]1NCCc3cc(OC)c4c(c31)Oc1cc3c(cc1O4)CCN(C)[C@H]3C2 [Trilobine (1), trilobine]
result: 1.19
